The following molecules are shown together with reported TD50 values.
Test: Toxicity in ip dosed albino CF-1 mouse assessed as neurological impairment measured at 0.25 to 4 hrs by rotorod test
Assay type: organism-based
Settings: in vivo

These solved cases illustrate the format of a correct answer.
Q: Name the reported TD50 value associated with the molecule `Cl.NCc1ccc(OCc2ccc(OC(F)(F)F)cc2)cc1`
A: > 100 mg/kg

Q: Name the reported TD50 value associated with the molecule `Cl.NCc1ccc(OCc2ccc(F)cc2)cc1`
A: > 100 mg/kg

New cases:
Q: Name the reported TD50 value associated with the molecule `Cl.NCc1ccc(OCc2cccc(F)c2)cc1`
A: > 100 mg/kg

Q: Name the reported TD50 value associated with the molecule `Cl.NCc1ccc(OCc2ccc(Cl)cc2)cc1`
A: > 100 mg/kg

* * *

Target: Muscarinic acetylcholine receptor M3 (Homo sapiens)
Test: Inhibition of muscarinergic M3 receptor (unknown origin) at 10 uM relative to control
READOUT NAME: inhibition (%)
Answer format: numeric, % implied, no suffix.

Q: Name the reported inhibition value associated with the molecule `Cl.NCc1ccc(OCc2ccc(OC(F)(F)F)cc2)cc1`
A: -6.5

New cases:
Q: Name the reported inhibition value associated with the molecule `Cl.NCc1ccc(OCc2ccc(F)cc2)cc1`
A: 7

Q: Name the reported inhibition value associated with the molecule `Cl.NCc1ccc(OCc2ccccc2F)cc1`
A: 12.7

Q: Name the reported inhibition value associated with the molecule `Cl.NCc1ccc(OCc2cccc(F)c2)cc1`
A: -2.1

Q: Name the reported inhibition value associated with the molecule `Cl.NCc1ccc(OCc2ccc(Cl)cc2)cc1`
A: 13.7

Q: Name the reported inhibition value associated with the molecule `Cl.NCc1ccc(OCc2ccccc2)cc1`
A: 1

Q: Name the reported inhibition value associated with the molecule `Cl.NCc1ccc(OCc2cccc(Cl)c2)cc1`
A: 11.9

Q: Name the reported inhibition value associated with the molecule `Cl.NCc1ccc(OCc2ccccc2OC(F)(F)F)cc1`
A: 19.5

Q: Name the reported inhibition value associated with the molecule `Cl.NCc1ccc(OCc2cccc(OC(F)(F)F)c2)cc1`
A: -3.5

* * *

The following compounds are shown together with reported inhibition values.
Target: Alpha-1B adrenergic receptor (Homo sapiens) (UniProt P35368)
Sequence (P35368 whole entry): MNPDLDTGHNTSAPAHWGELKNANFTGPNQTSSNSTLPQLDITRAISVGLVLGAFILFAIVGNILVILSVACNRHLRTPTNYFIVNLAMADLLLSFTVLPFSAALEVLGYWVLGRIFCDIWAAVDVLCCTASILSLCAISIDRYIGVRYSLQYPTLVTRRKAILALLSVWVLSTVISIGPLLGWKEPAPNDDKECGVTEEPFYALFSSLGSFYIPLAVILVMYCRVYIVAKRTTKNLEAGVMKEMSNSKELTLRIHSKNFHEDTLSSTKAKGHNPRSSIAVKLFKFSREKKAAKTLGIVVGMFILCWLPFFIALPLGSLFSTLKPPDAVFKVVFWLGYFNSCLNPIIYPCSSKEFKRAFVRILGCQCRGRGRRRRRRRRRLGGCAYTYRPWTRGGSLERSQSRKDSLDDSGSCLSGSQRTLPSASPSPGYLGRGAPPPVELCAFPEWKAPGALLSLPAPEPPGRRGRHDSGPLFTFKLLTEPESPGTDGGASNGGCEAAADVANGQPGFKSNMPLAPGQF
Test: Inhibition of adrenergic alpha-1B receptor (unknown origin) at 10 uM relative to control
Answer format: numeric, % implied, no suffix.

These solved cases illustrate the format of a correct answer.
Q: Name the reported inhibition value associated with the compound `Cl.NCc1ccc(OCc2ccccc2OC(F)(F)F)cc1`
A: -2.4

Q: Name the reported inhibition value associated with the compound `Cl.NCc1ccc(OCc2ccccc2)cc1`
A: 0.5

Q: Name the reported inhibition value associated with the compound `Cl.NCc1ccc(OCc2cccc(OC(F)(F)F)c2)cc1`
A: -3.8

Q: Name the reported inhibition value associated with the compound `Cl.NCc1ccc(OCc2ccc(OC(F)(F)F)cc2)cc1`
A: 4.1

Q: Name the reported inhibition value associated with the compound `Cl.NCc1ccc(OCc2ccccc2F)cc1`
A: 13.6

New cases:
Q: Name the reported inhibition value associated with the compound `Cl.NCc1ccc(OCc2cccc(F)c2)cc1`
A: 24.8

Q: Name the reported inhibition value associated with the compound `Cl.NCc1ccc(OCc2cccc(Cl)c2)cc1`
A: 11.4

* * *

Target: 5-hydroxytryptamine receptor 5A (Homo sapiens) (UniProt P47898)
Sequence (P47898 whole entry): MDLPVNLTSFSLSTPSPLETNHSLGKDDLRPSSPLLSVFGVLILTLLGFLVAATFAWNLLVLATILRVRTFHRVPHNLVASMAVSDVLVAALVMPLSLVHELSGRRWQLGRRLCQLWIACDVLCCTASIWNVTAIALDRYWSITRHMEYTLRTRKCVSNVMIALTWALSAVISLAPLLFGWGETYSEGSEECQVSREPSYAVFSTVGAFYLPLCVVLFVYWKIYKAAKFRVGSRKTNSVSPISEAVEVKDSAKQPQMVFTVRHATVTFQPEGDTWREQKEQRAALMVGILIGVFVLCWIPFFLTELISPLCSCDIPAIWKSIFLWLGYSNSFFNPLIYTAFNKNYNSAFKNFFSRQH
Assay: Inhibition of 5-HT5A receptor (unknown origin) at 10 uM relative to control
The following molecules are shown together with reported inhibition values.
Answer format: numeric, % implied, no suffix.

These solved cases illustrate the format of a correct answer.
Q: Name the reported inhibition value associated with the molecule `Cl.NCc1ccc(OCc2ccc(F)cc2)cc1`
A: 8.5

Q: Name the reported inhibition value associated with the molecule `Cl.NCc1ccc(OCc2ccc(Cl)cc2)cc1`
A: 36.6

New cases:
Q: Name the reported inhibition value associated with the molecule `Cl.NCc1ccc(OCc2ccccc2OC(F)(F)F)cc1`
A: -0.1

Q: Name the reported inhibition value associated with the molecule `Cl.NCc1ccc(OCc2ccc(OC(F)(F)F)cc2)cc1`
A: -1.8

Q: Name the reported inhibition value associated with the molecule `Cl.NCc1ccc(OCc2ccccc2)cc1`
A: 1.2

Q: Name the reported inhibition value associated with the molecule `Cl.NCc1ccc(OCc2ccccc2F)cc1`
A: -5.2

Q: Name the reported inhibition value associated with the molecule `Cl.NCc1ccc(OCc2cccc(Cl)c2)cc1`
A: 44.9

Q: Name the reported inhibition value associated with the molecule `Cl.NCc1ccc(OCc2cccc(OC(F)(F)F)c2)cc1`
A: 0.2
